Test system: MCF7
Assay: Antiproliferative activity against human MCF7 cells
Assay type: functional, cell-based
pIC50: −log10 of the molar value.
Observable: pIC50

## Task Fill in: pIC50 of "COc1cc(/C=C(\c2cc(OC)c(OC)c(OC)c2)c2nc3cc(OC)c(OC)cc3o2)ccc1O" is ___
## Result > 7.00
